Values from PubChem BioAssay

- Test method notes: non-specific cell cytotoxicity, dose response, cytotoxicity control for PAX8 inhibitor project, plate reader, dry powder samples (AID 743021)
- Condition details: cell line, non-specific cytotoxicity counter-screen; series mostly up to 35 µM
Measured potencies and affinities stand elsewhere. Records with an inconclusive call do not appear. Activity calls are given as the source filed them. The rule behind the calls is not given here.
Property label: activity change, negative = cytotoxicity

Previously resolved entries follow.
INPUT: Using the record for Cc1ccccc1CNC(=O)C1CCCN(c2nnc(C)c3c(C)n(-c4ccccc4)nc23)C1 (configuration not stated) , state its measured activity change, negative = cytotoxicity.
OUTPUT: inactive

INPUT: Give activity change, negative = cytotoxicity for CC1=C(C(=O)OC2CCCCC2)C(c2cccnc2)n2ncnc2N1 (configuration not stated)
OUTPUT: inactive

INPUT: Note activity change, negative = cytotoxicity for the compound shown: "COc1ccc(-c2ccc3c(c2)[C@@H]2[C@@H](CCN2S(=O)(=O)c2ccc(OC)cc2)[C@@H](CO)N3C)cc1"
OUTPUT: inactive

INPUT: // fetch activity change, negative = cytotoxicity given entry "C=C1C(=O)O[C@@H]2[C@H]1[C@@H](OC(=O)/C(C)=C/C)C/C(C)=C\C(=O)/C=C(\C)[C@@H]2O"
OUTPUT: inactive

INPUT: Return value of activity change, negative = cytotoxicity for input CC1(Cc2ccc(OC(F)(F)F)cc2)C(=O)Nc2ccc(S(=O)(=O)NC3CCCCC3)cc21 (configuration not stated) , no commentary.
OUTPUT: inactive

Others:
INPUT: For the compound "C[C@H]1CN([C@@H](C)CO)S(=O)(=O)c2ccc(C#Cc3ccccc3F)cc2O[C@@H]1CN(C)CC1CCOCC1" , give its measured activity change, negative = cytotoxicity value.
OUTPUT: inactive

INPUT: State its activity change, negative = cytotoxicity for this compound: "CS(=O)(=O)c1ncc(Cl)c(C(=O)Nc2ccc3ccccc3c2)n1"
OUTPUT: 1.87% [at 8 µM] (inactive)

INPUT: Indicate its recorded activity change, negative = cytotoxicity; the compound in question is "Cc1ccc2c(c1C)-c1c(ccc(C)c1C)C(=O)C2=O"
OUTPUT: inactive

INPUT: For the compound "O=C(Nc1ccc(F)cc1)c1nc(S(=O)(=O)Cc2ccccc2)ncc1Cl" , report activity change, negative = cytotoxicity.
OUTPUT: inactive

INPUT: Find the measured activity change, negative = cytotoxicity of "O=C(Nc1cccc(F)c1)N1CCCCN2[C@@H](CO)[C@H](c3ccc(C#Cc4ccccc4)cc3)[C@@H]2C1" and report it.
OUTPUT: inactive

INPUT: Given "O=C(Nc1ccc(C(F)(F)F)cc1)Nc1ccc2c(c1)[C@H]1C[C@@H](CC(=O)N3CCc4ccccc4C3)O[C@H](CO)[C@H]1O2" , respond with its activity change, negative = cytotoxicity.
OUTPUT: inactive

INPUT: Consider the compound "O=C(c1cccs1)N1C[C@H](O)[C@@H](n2cc(C3CC3)nn2)C[C@@H]1c1ccccc1" . State its measured activity change, negative = cytotoxicity.
OUTPUT: inactive

INPUT: # return recorded activity change, negative = cytotoxicity for input "N#C[C@H]1N[C@H](CO)[C@@H]1c1ccc(C#Cc2ccccc2F)cc1"
OUTPUT: inactive

INPUT: In one line, give reported activity change, negative = cytotoxicity of the entry "C[C@@H]1CCCCO[C@@H](CN(C)Cc2ccc(Cl)c(Cl)c2)[C@H](C)CN([C@H](C)CO)C(=O)c2cc(NC(=O)Nc3ccc(F)cc3)ccc2O1" .
OUTPUT: inactive

INPUT: Give the value of activity change, negative = cytotoxicity reported for the following: "c1ccc(COc2ccc(OCCN3CCCCC3)cc2)cc1"
OUTPUT: inactive

INPUT: Name the recorded activity change, negative = cytotoxicity of the compound listed here: "COc1cc(NC(=O)Cn2ncc(Cl)c(Cl)c2=O)c(C)cc1[N+](=O)[O-]"
OUTPUT: inactive

INPUT: Fill in activity change, negative = cytotoxicity for record "C[C@@H]1CCCCO[C@@H](CN(C)Cc2ccc3c(c2)OCO3)[C@H](C)CN([C@@H](C)CO)C(=O)c2cc(NC(=O)Nc3ccc(C(F)(F)F)cc3)ccc2O1"
OUTPUT: inactive

INPUT: Return reported activity change, negative = cytotoxicity. Input compound: "O=C(C[C@@H]1C[C@@H]2c3cc(NC(=O)Cc4ccncc4)ccc3O[C@@H]2[C@H](CO)O1)NCc1ccc(-c2ccccc2)cc1"
OUTPUT: inactive

INPUT: Provide measured activity change, negative = cytotoxicity value, entry: "Cc1noc(C)c1S(=O)(=O)Nc1ccc2c(c1)C(=O)N([C@H](C)CO)C[C@H](C)[C@@H](CN(C)C(=O)Nc1ccc(C(F)(F)F)cc1)OCCCC[C@H](C)O2"
OUTPUT: inactive
